# Tested on: PC-3 prostate
# assay.info: NCI-60 one-dose screen, 48 h
# test.context: 10 µM
This is part of a sample that, as a whole, favours compounds with a hit. Of some 83,000 tested, about 20% had one in any assay. Activity calls are given as the source filed them. The calls were made as follows: active = growth percent below 10; inactive = the rest.
The categories you may choose from are label 1 = active, label 0 = inactive

What is the recorded call for this molecule in the test? `Nc1nc(Nc2ccccc2)nn1Cc1c(Cl)cccc1Cl`
label 0

Param item: `CCN1CCN(c2ccc(NC(=O)Nc3ccc(-c4cc(C(=O)NC)c5ncccc5n4)cc3)cc2C(F)(F)F)CC1`
label 1

// same read-out, input: `Cc1ccc(C(=O)CSc2nnc(-c3c[nH]c4ccccc34)n2-c2ccccc2)cc1`
label 0

---

Would you mind telling me the reported growth of each entry?
# Test system: HOP-92 NSCLC
# assay.info: NCI-60 one-dose screen, 48 h (100 = growth as untreated, 0 = no growth, -100 = all killed)
# test.context: 10 µM
The panel holds about 83,000 compounds, 20% with a hit somewhere; the sample as a whole holds those more often.
Response body: numeric value in %, unit text excluded.

Reported growth for HOP-92 NSCLC, given `O=C(CSc1nnc(-c2c[nH]c3ccccc23)n1-c1ccccc1)c1ccc(Cl)cc1` ?
65

Repeat for the following molecule: `O=C1Nc2cc(-c3ccc(NC(=O)c4cccc([N+](=O)[O-])c4)cc3)ccc2/C1=C/c1ccc[nH]1`
109

Next entry: CC1(c2ccccc2)NC(=O)N(CC(=O)Nc2ccc(C(=O)/C=C/c3ccc(Cl)cc3)cc2)C1=O (stereo not given)
-10.4

Next entry: `CN1CCCN(Cc2ccc(C(=O)Nc3cccc(Nc4ccc5cc(O)ccc5n4)c3)cc2C(F)(F)F)CC1`
53.3

# iterate: `COc1ccc(C(=O)CSc2nnc(-c3c[nH]c4ccccc34)n2-c2ccccc2)cc1`
7.9

Another molecule: `[2H]C([2H])([2H])Oc1ccc2ncc(C#Cc3cncc(C(=O)Nc4ccc(CN5CCN(C)CC5)c(C(F)(F)F)c4)c3)n2n1`
-66.6

Note, next up: `O=C(NO)c1ccc(CNC(=O)[C@H]2Cc3c([nH]c4ccccc34)[C@H](c3ccccc3)N2)cc1`
-2.26

Now the molecule `CCCn1c(=O)c2[nH]c(-c3ccc(OCc4nc5ccccc5[nH]4)cc3)nc2n(CCC)c1=O`
-6.45

// query: `COC[C@@H](CC(C)C)N=C1N/C(=C\c2ccc3ncsc3c2)C(=O)N1C`
19.1

Likewise for `COc1cc2c(cc1OC)CN(CCCCOc1cc(O)c3c(=O)cc(-c4ccccc4)oc3c1)CC2` ?
64.2

---

Would you mind telling me the reported growth of each entry?
# Tested on: HOP-92 NSCLC
# assay.info: NCI-60 one-dose screen, 48 h (100 = growth as untreated, 0 = no growth, -100 = all killed)
# test.context: 10 µM
The panel holds about 83,000 compounds, 20% with a hit somewhere; the sample as a whole holds those more often.
Kindly answer with a numeric value in %, unit omitted.

Request body: readout growth, system HOP-92 NSCLC, query `CSc1nc(-c2cccc(C)c2)c2cc(-c3ccccc3)n(C)c2n1` . Return the value.
-8.91

Next up: C=C1CCC2C3(C)COC(c4c(F)cccc4F)OC3CCC2(C)C1CC(O)C1=CCOC1=O (centres undefined)
55.4

Next molecule: `Cc1ccc(/C(CSc2nnc(-c3c[nH]c4ccccc34)n2-c2ccccc2)=N/O)cc1`
-5.5

// repeat for `Cc1ccc(-c2nc(Nc3ccc(C)c(S(N)(=O)=O)c3)c3ccccc3n2)cc1` and report
104

---

# Test system: HOP-62 NSCLC
# assay.info: NCI-60 one-dose screen, 48 h (100 = growth as untreated, 0 = no growth, -100 = all killed)
# test.context: 10 µM
The panel holds about 83,000 compounds, 20% with a hit somewhere; the sample as a whole holds those more often.
measured.property: growth (%)
Give your result in % as a bare value.

What does the record list as growth for `O=C(c1ccc(-n2c(=O)[nH]c3ccccc3c2=O)cc1)N1CCOCC1` ?
134

Another molecule: `CN1CCN(c2ccc(Nc3nc(NCCCNC(=O)c4ccc(Cl)cc4)c4sccc4n3)cc2)CC1`
91.9

Same question for `CC(C)CCSc1nc(NC2CC2)c(C#N)c(-c2ccc(C(C)C)cc2)n1` please.
94.9

---

# System: UACC-62 melanoma
# assay.info: NCI-60 one-dose screen, 48 h (100 = growth as untreated, 0 = no growth, -100 = all killed)
# test.context: 10 µM
This is part of a sample that, as a whole, favours compounds with a hit. Of some 83,000 tested, about 20% had one in any assay.
Exercise: for every item that follows, state its recorded growth.
Could you give me the number in %? Just the number is fine.

Look up growth: `CC(=O)c1cc(C(=O)c2ccc3c(c2)NC(=O)CO3)n2ccc3ccccc3c12`
94.7

Repeat with `COc1cc2c3c(n(CCCNC(C)C)c(=O)c2cc1OC)-c1nc2c(cc1C3=O)OCO2`
22

Same lookup for `COc1cc(/C=C/C(=O)c2ccc(C(F)(F)F)cc2)ccc1Oc1nc(Nc2ccc(F)cc2)nc(N(C)C)n1` , please.
57.7

And what about the compound CCOC(=O)C1=C(N)N(c2ccc(C)cc2)C2=C(C(=O)CC(C)(C)C2)C1c1ccccc1OC (stereo not given) ?
89.8

Query `COc1ccc(NC(=O)Cn2c(/C=C/c3ccc(N(C)C)cc3)nc3ccccc3c2=O)cc1` next
40.9

Now the compound `O=[N+]([O-])c1ccc(-c2nc(-c3ccccc3)c(-c3ccccc3)n2-c2ccc(S(=O)(=O)Nc3ncccn3)cc2)cc1`
42

Try this compound too: CC1=C(C(=O)OC(C)C)C(c2ccc(O)cc2)NC(=S)N1 (stereo not given)
93.4

Next record, please: O=C(c1ccc(Cl)cc1)C1[C@H](c2ccccc2Br)[C@@H](c2ccccc2)NC12C(=O)Nc1ccc(Cl)cc12 (stereo not given in full)
22

Here is the next compound: `CCOc1ccc2ncc(C#Cc3cncc(C(=O)Nc4ccc(CN5CCN(C)CC5)c(C(F)(F)F)c4)c3)n2n1`
-71.3

Now the same for `Oc1ccc(/C=C2\CCCc3cc4ccc(O)cc4[o+]c32)c(O)c1`
25

Follow-up item: O=C1CCC(N2Cc3cc(CC(=O)Nc4ccc(N5CCCCC5)cc4)ccc3C2=O)C(=O)N1 (stereo not given)
78.1

Cool, now `O=C(N/C(=C1/OCCN1Cc1ccccc1)[P+](c1ccccc1)(c1ccccc1)c1ccccc1)c1ccccc1`
-36.4

Next: `O=C(CN1CCN(c2ncnc3c2cnn3-c2ccccc2)CC1)Nc1nncs1`
17.4

What would you report for `O=C(Nc1ccccc1)Nc1nc2ccccc2s1` ?
48.3

What do we get for `COc1cccc(-c2ccc(/C=N/NC(=O)c3[nH]c4ccc(Br)cc4c3-c3ccccc3)o2)c1` ?
28.8

Next up: `O=c1oc2ccccc2cc1-c1csc(N=Nc2c(O)[nH]c3ccc(Br)cc23)n1`
78.1

Same for `Cc1cc(=O)oc2cc(OCCCCOc3ccc(/C=C/C(=O)Nc4ccccc4[N+](=O)[O-])cc3)ccc12`
94.9

Moving on to `O=C(NCCCCC(c1ccc(F)cc1)c1ccc(F)cc1)NCCCc1cccnc1`
41.6

Try this compound too: `O=C(CSc1nnc(-c2c[nH]c3ccccc23)n1-c1ccccc1)Nc1ccc(C(=O)/C=C/c2cccc([N+](=O)[O-])c2)cc1`
76.5

Same read-out for `CO[C@H]1CSS[C@@H]1Cn1nc(-c2ccc(Oc3ccccc3)cc2)c2c(N)ncnc21` ?
-69.5

What about `N#Cc1ccc(-c2nn(-c3ccc(C(=O)O)cc3)cc2CNc2ccc(Cl)cc2)cc1` ?
61.2

Queued: `CC(C)(C)Nc1nc2cc(Cl)c(Cl)cc2nc1S(C)(=O)=O`
52.9

Another compound: `COc1cccc2nc(Nc3cccc(NC(=O)c4ccc(CN5CCCN(C)CC5)c(C(F)(F)F)c4)c3)ccc12`
-74.1

// query: `COc1cccc(C(N)=Nc2ccc(OCCCCCCn3cncn3)cc2)c1`
36.4

Also, `Cc1cc2nc3c4ccccc4n(CCO)c3nc2cc1C` please.
73.8

And for `Cc1cc(C)nc(SCC(=O)Nc2ccc(S(N)(=O)=O)cc2)n1` ?
96.7

Please give the result for `N#Cc1ccc(-c2nn(-c3ccc(C(=O)O)cc3)cc2CNc2cccc(Br)c2)cc1` too.
41.8

What do we get for C=C1CCC2C3(C)COC(c4c(F)cccc4F)OC3CCC2(C)C1C/C=C1/C(=O)OCC1O (stereo not given) ?
-4.04

Same again, this time with `C=C(c1ccc(OC)c(N)c1)c1cc(C)nc2ccccc12`
24.1

Subsequent entry: `O=S(=O)(Nc1ncccn1)c1ccc(-n2c(-c3ccc(Br)cc3)nc(-c3ccccc3)c2-c2ccccc2)cc1`
34.3

---

# Test system: SF-539 CNS
# assay.info: NCI-60 one-dose screen, 48 h (100 = growth as untreated, 0 = no growth, -100 = all killed)
# test.context: 10 µM
# Procedure: Cells are grown in 96 well plates and exposed to the test compound for 48 hours. Compounds are tested at a single concentration, which is 10^-5 M for most compounds. The reported endpoint is percent growth (GI% or GIPRCNT), where numbers from 0 - 100% represent growth inhibition, and numbers from -100% - 0 represent cell death. For example, a value of 40 represents 60% growth inhibition. A value of 0 means no net growth occurred over the course of the experiment. […]
This is part of a sample that, as a whole, favours compounds with a hit. Of some 83,000 tested, about 20% had one in any assay.
measured.property: growth (%)
State just the number; it will be interpreted in %.

Dear colleague, I am looking for the recorded growth of the following molecule: `Nc1nc2c(F)c(F)c(F)c(F)c2s1`
99

Can you handle `COc1ccc2[nH]cc(/C=N/Nc3cccc(Cl)n3)c2c1` next?
26.8

What do you get for `N#Cc1ccc(-c2nn(-c3ccc(C(=O)O)cc3)cc2CNc2ccc(Cl)cc2)cc1` ?
80.1

Moving on to `CC(=C(c1ccc(OCCN2CCCCC2)cc1)c1ccc(OCCN2CCCCC2)cc1)c1ccccc1`
-93.3

Now consider `O=C(NCCCCCCCCCC[P+](c1ccccc1)(c1ccccc1)c1ccccc1)c1ccc(-n2nc(-c3ccccc3O)nc2-c2ccccc2O)cc1` and answer again.
-95.9

Please do the same for `O=C(NO)c1ccc(CNC(=O)[C@H]2Cc3c([nH]c4ccccc34)[C@H](c3ccc(Cl)cc3)N2)cc1` as well.
2.84

Queued: `COc1ccc2c(c1)N=C(C(=O)O)/C2=C/c1sc(Nc2ccc(O)cc2)nc1O`
52.1

Measured values drawn from PubChem BioAssay (NCI) for this set.
